These entries and their values trace back to ChEMBL document CHEMBL1921686.

What inhibition of growth at 10 µM was measured for each of the following?
system: BGC-823; assay: Antitumor activity against human BGC823 cells assessed as growth inhibition at 10 uM by SRB method; type: functional; conditions: read-out: GI
One number for each entry, in %.

The following molecules have reported results that may help.
molecule	reportedMeasurement
O=C(N/N=C/c1ccc(-c2ccc(F)cc2F)o1)c1ccccc1S[C@@H]1O[C@H](CO)[C@@H](O)[C@H](O)[C@H]1O	18.4
O=C(N/N=C/c1ccc(-c2ccc(F)cc2F)o1)c1ccccc1S[C@@H]1O[C@H](CO)[C@H](O)[C@H](O)[C@H]1O	16.1

Please go through the list and note inhibition of growth at 10 µM for each molecule.
1. COc1ccccc1C(=O)N/N=C/c1ccc(-c2ccc(F)cc2F)o1
2. COc1cccc2c1C(=O)c1c(O)c3c(c(O)c1C2=O)C[C@@](O)(C(=O)CO)C[C@@H]3O[C@H]1C[C@H](N)[C@H](O)[C@H](C)O1 [DOXORUBICIN]

OUT:
35.9
51.2

----------
system: Bel-7402; experiment: Antitumor activity against human Bel7402 cells assessed as growth inhibition at 10 uM by SRB method; format: functional; conditions: read-out: GI
parameterMeasured: inhibition of growth at 10 µM (%)
One number for each entry, in %.

Solved entries (count: 5):
compound	inhibition of growth at 10 µM / %
O=C(N/N=C/c1ccc(-c2ccc(F)cc2F)o1)c1ccccc1S[C@@H]1O[C@H](CO)[C@@H](O[C@@H]2O[C@H](CO)[C@H](O)[C@H](O)[C@H]2O)[C@H](O)[C@H]1O	-10.6
O=C(N/N=C/c1ccc(-c2ccc(F)cc2F)o1)c1ccccc1S[C@@H]1O[C@H](CO)[C@@H](O)[C@H](O)[C@H]1O	-0.67
O=C(N/N=C/c1ccc(-c2ccc(F)cc2F)o1)c1ccccc1S[C@@H]1O[C@H](CO)[C@H](O)[C@H](O)[C@H]1O	27.2
COc1ccccc1C(=O)N/N=C/c1ccc(-c2ccc(F)cc2F)o1	1.69
O=C(N/N=C/c1ccc(-c2ccccc2Cl)o1)c1ccccc1S[C@@H]1O[C@H](CO)[C@@H](O)[C@H](O)[C@H]1O	2.09

We next turn to a different compound, shown below.
IN: Form field - read-out: inhibition of growth at 10 µM; system: Bel-7402; submitted item: COc1cccc2c1C(=O)c1c(O)c3c(c(O)c1C2=O)C[C@@](O)(C(=O)CO)C[C@@H]3O[C@H]1C[C@H](N)[C@H](O)[C@H](C)O1 [DOXORUBICIN]
OUT: 6.53

----------
test system: BGC-823; test: Antitumor activity against human BGC823 cells assessed as growth inhibition at 10 uM by SRB method; type: functional; settings: read-out: GI
parameterMeasured: inhibition of growth at 10 µM (%)
Numbers only, in %.

Give inhibition of growth at 10 µM for each of the items listed below.
1. O=C(N/N=C/c1ccc(-c2ccc(F)cc2F)o1)c1ccccc1O[C@@H]1O[C@H](CO)[C@@H](O)[C@H](O)[C@H]1O
2. O=C(N/N=C/c1ccc(-c2ccccc2Cl)o1)c1ccccc1O[C@@H]1O[C@H](CO)[C@@H](O)[C@H](O)[C@H]1O
3. O=C(N/N=C/c1ccc(-c2ccc(F)cc2F)o1)c1ccccc1O
4. O=C(N/N=C/c1ccc(-c2ccccc2Cl)o1)c1ccccc1S[C@@H]1O[C@H](CO)[C@@H](O)[C@H](O)[C@H]1O
5. O=C(N/N=C/c1ccc(-c2ccc(F)cc2F)o1)c1ccccc1S[C@@H]1O[C@H](CO)[C@@H](O[C@@H]2O[C@H](CO)[C@H](O)[C@H](O)[C@H]2O)[C@H](O)[C@H]1O
6. O=C(N/N=C/c1ccc(-c2ccccc2Cl)o1)c1ccccc1S[C@@H]1O[C@H](CO)[C@@H](O[C@@H]2O[C@H](CO)[C@H](O)[C@H](O)[C@H]2O)[C@H](O)[C@H]1O

OUT:
[6.66, 1.88, 68.4, 6.21, -2.72, 1.91]
